# Target: T1, mouse PCSK9 (mouse, UniProt Q80W65 35-694, limits assumed)
# T1 construct: also called mPCSK9; msPCK9
# T1 sequence (Q80W65 35-694 limits assumed): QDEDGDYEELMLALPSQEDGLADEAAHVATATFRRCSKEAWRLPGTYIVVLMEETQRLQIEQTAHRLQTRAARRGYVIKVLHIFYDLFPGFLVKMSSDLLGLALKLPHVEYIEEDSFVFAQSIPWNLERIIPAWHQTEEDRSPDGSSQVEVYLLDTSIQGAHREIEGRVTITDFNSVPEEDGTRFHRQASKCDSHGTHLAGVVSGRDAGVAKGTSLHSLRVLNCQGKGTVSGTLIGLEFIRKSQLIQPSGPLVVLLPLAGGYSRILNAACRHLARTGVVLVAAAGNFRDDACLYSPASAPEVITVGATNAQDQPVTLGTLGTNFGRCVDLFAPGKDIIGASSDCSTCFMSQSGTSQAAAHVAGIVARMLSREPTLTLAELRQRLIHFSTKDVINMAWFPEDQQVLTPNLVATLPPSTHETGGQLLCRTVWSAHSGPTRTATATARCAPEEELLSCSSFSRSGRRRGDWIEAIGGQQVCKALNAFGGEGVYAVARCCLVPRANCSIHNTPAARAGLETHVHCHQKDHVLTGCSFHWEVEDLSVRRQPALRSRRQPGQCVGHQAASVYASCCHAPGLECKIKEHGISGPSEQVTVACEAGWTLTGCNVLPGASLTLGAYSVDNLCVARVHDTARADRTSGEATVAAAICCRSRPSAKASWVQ
# Experiment description: SPR Biacore 3000, captured IgG, mPCSK9 injected, pH 5.5
Property name: kon (M⁻¹ s⁻¹)
Answers are plain numbers, in M⁻¹ s⁻¹.

Consider the following items and state reported kon for each.
1. 6L1721 (antibody, V domains shown, L1L3-based mutant; Tested as full-length IgG) VH: QVQLVQSGAEVKKPGASVKVSCKASGYTFTSYYMHWVRQAPGQGLEWMGEISPFGGRTNYNEKFKSRVTMTRDTSTSTVYMELSSLRSEDTAVYYCARERPLYASDLWGQGTTVTVSS VL: DIQMTQSPSSLSASVGDRVTITCRASQGIHSALAWYQQKPGKAPKLLIYHASYRYTGVPSRFSGSGSGTDFTFTISSLQPEDIATYYCQQRYSLWRTFGQGTKLEIK
2. 5L1724H23 (antibody, V domains shown, Triple histidine mutant of h5A10; Only CDRs printed; Full-length IgG) VH: QVQLVQSGAEVKKPGASVKVSCKASGYTFTSYYMHWVRQAPGQGLEWMGEIHPSGGRTNYNEKFKSRVTMTRDTSTSTVYMELSSLRSEDTAVYYCARERPLYAMDYWGQGTTVTVSS VL: DIQMTQSPSSLSASVGDRVTITCKASQDVHTAVAWYQQKPGKAPKLLIYSASHRYTGVPSRFSGSGSGTDFTFTISSLQPEDIATYYCQQRYSTPRTFGQGTKLEIK
3. 5L1724H23_6L3 (antibody, V domains shown, Only CDRs printed; Full-length IgG) VH: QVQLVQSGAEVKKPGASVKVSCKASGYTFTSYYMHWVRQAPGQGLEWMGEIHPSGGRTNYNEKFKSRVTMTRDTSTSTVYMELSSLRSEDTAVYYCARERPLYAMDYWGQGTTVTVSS VL: DIQMTQSPSSLSASVGDRVTITCKASQDVHTAVAWYQQKPGKAPKLLIYSASHRYTGVPSRFSGSGSGTDFTFTISSLQPEDIATYYCQQRYSLWRTFGQGTKLEIK

Reply:
1. 338000
2. 273000
3. 160000
